Biological target: Aurora A kinase (Homo sapiens)
Assay: IC50 determination for inhibitors of Aurora A (ELISA-type kinase assay, GST-Histone H3 substrate)
Conditions: mutant Aurora A kinase, 30 μM ATP, 40 minutes, read-out: IC50 Aurora A kinase inhibition
pIC50: −log10 of the molar value.
measurement kind: pIC50

INSERT INTO assay_data (smiles_code, measured_number) VALUES
  ('CCN1C(=O)C(C)(C)c2cc3nc(-c4n[nH]c5c4COCC5)[nH]c3cc21', 7.80),
  ('CCN1C(=O)C(C)(C)c2cc3nc(-c4n[nH]c5c4CN(S(=O)(=O)c4ccc(F)cc4)CC5)[nH]c3cc21', 7.85),
  ('CC(C)N1C(=O)C(C)(C)c2cc3nc(-c4n[nH]c5c4CCC5)[nH]c3cc21', 7.77),
  ('CCN1C(=O)C(C)(C)c2cc3nc(-c4n[nH]c5c4CN(C(=O)c4ccc(F)cc4)CC5)[nH]c3cc21', 7.26),
  ('CC(C)N1C(=O)C(C)(C)c2cc3nc(-c4n[nH]c5c4CCCC5)[nH]c3cc21', 7.92);
